- test-name: yeast display, Sf9 membrane polyspecificity reagent, FACS + sequencing; frameworks hold sequencing errors
endpoint-label: polyreactivity (PSR sort gate)

Look over these answered cases.
QVQLVESGGGLVQAGGSLRLSCAASGSTLAYNAMGWYRQAPGKERELVATINFSGGSTYYADSVKGRFTISRDNSKNTVYLQMNSLKPEDTAVYYCNARGYWQYSPTKFDYWGQGTQVTVSS : low polyreactivity
QVQLVESGGGLVQAGGSLRLSCAASGSNILQNAMGWYRQAPGKERELVAAITNGGSTNYADSVKGRFTISRDNAKNTVYLQMNSLKPDDTAVYYCAAYPLYTGSYDRGGYWGQGTQVTVSS : low polyreactivity
QVQLVESGGGLVQAGGSLRLSCAASGRTIGGNAMGRYRQAPGKERELVAAISWSGGRTYYADSVKGRFTISRDNAKNTVYLQMNSLKPEDTAVYYCNKVGYGFHGDYDYWGQGTQVTVSS : high polyreactivity
QVQLVESGGGLVQAGGSLRLSCAASGSIFTAYTMGWYRQAPGKERELVAAITERGGSTYYADSVKGRFTISRDNAKNTVYLQMNSMKPEDTAVYYCAASTLKDIYLWFRVDYWGQGTQVTVSS : low polyreactivity
QVQLVESGGGLVQAGGSLRLSCAASGSIFQAYVMGWYRQAPGKERELVATIDRRGGITYYADSVKGRFTISRDNAKNTVYLQMNSLKPEDTAVYYCATRTRLAQYSRGRYRYDYWGQGTQVTVSS : high polyreactivity
QVQLVESGGGLVQAGGSLRLSCAASGSIFSRYTMGWYRQPPGKERELVAAITSSGGRTYYADSVKGRFRISRDNAKNTVYLQLNSLKPVVTAVYYCAARIQKQQGYGYWGQGTQVTVSS : high polyreactivity

Looking up QVQLVESGGGLVQAGGSLRLSCAASGRIFNRNAMGWYRQAPGKERELVASISSGGRTNYADSVKGRFTISRDNAKNTVYLLMNSLKPEDTAVYYCAAKSPRILLDYWGQGTQVTVSS , I found its polyreactivity (PSR sort gate) recorded as low polyreactivity

sequence QVQLVESGGGLVQAGGSLRLSCDASGIIFYYNAMGWYRQAPGKERELVDRINSGGSTNYADSVKGRFTISRDNAKNTVDFQMTSMKPEDTAVYYCAARVRRWSYYGALFEYWGQGTQVTVSS , polyreactivity (PSR sort gate) observed: low polyreactivity

So, QDQLVESGGGLVQAGGSLRLSCAASGFIFNKNAMGWYRQAPGKERELVAAITFGGGTTYYADSVKGRFTISRDNAKNTVYLQMNSLKPEDTAVYYCAKRYWRHPVFYLYDYWGQGTQVTVSS ? Its polyreactivity (PSR sort gate) was high polyreactivity

Please fill in: polyreactivity (PSR sort gate) reported for QVQLVESGGGLVQAGGSLRLSCAASGSTQTVNVMGWYRQAPGKEREFVAAINDSGSTYYADSVKGRFTISRDNAKNTVYLQMNSLKPEDTAVYYCATYYWLGLSLYDYWGQGTQVTVSS = low polyreactivity

For record QVQLVESGVGLVQAGGSLRLSCAASGSTFYPNAMGWYRQAPRKERELVAAISRGTRTKYADSVKGRFTISRDNAKNTVYLQMNSLKPEDTAVYYCAADTGTGLDWGQGTQVTVSS the listed polyreactivity (PSR sort gate) is high polyreactivity

---

- test-name: yeast display, Sf9 membrane polyspecificity reagent, FACS + sequencing; frameworks hold sequencing errors
endpoint-label: polyreactivity (PSR sort gate)

QVQLVESGGGLVQAGGSLRLSCAASGRIFATNAMGWYRQAPGKERELVAGIRRSGARTYYADSVKGRFTISRDNAKNTVYLQMYSLKPEDTAVYYCNASLFIEIYSFQYDDHFAEYGYWGQGTQVTVSS : high polyreactivity
QVQLVESGGGLVQAGGSLRLSCAASGSIIGGYAMGWYRQAPGKERELVAAITRSGGRTYYADSVKGRFTISRDNAKNTVYLQMNSLKPEDTAVYYCNADRRRRFGYWGQGTQVTVSS : high polyreactivity
QVQLVESGGGLVQAGGSLRLSCAASAFIIHRYAMGWYRQAPGKERELVAVITSGGGSTYYADSVKGRFTISRDNAKNTVYLQMNCLKAEDTAVYYCAAFQPDNSRYRYDYWGQGTQVTVSS : high polyreactivity
QVQLVETGGGLVQAGGSLRLSCAAYGSIFIGYAMGWYRQAPGKERELVAAISNSGGRTYYADSVKGRFTISRDNAKNTVYLQMNSLKPEDTEVYYCNVDYRIPYRMDYWGQGTQVTVSS : high polyreactivity

---

- test-name: yeast display, Sf9 membrane polyspecificity reagent, FACS + sequencing; frameworks hold sequencing errors
endpoint-label: polyreactivity (PSR sort gate)

QDQVVESGGGLVQAGGSLRLSCAASGRTFAIYAMGWYRQAPGKEREFVAAITWRSGSTYYADSVKGRFTISRDNAKNTVYLQMMSVKPEDTAVYFCAAYPYSYLQLMDYWGQGTQVTVSS : high polyreactivity
QVQLVESVGGLVQAGGSLRLSCAASGSIFDRYAMGWYRQAPGKERELVAAISTGGSTNYADSVKGRFTISRDNAKNTVYLQMNSLKPEDTAVYYCAARYLYRMYYWGQGTQVTVSS : low polyreactivity
QVQLVESGGGLVQAGGSLRLSCAASGRTLHDYTMGWYRQEPGKERELVAGITSGGRTNYADSVKGRFTISRYNAKNTVYLQMNSLKPEDTAVYYCAAAWTWWRLYADDYWGQGTQVTVSS : high polyreactivity
QVQLVESGGGLVQAGGSLRLSCAASGSIFYPNAMGWYRQAPGKERELVAAITVGGGRTYYADSVKGRFTISRDNAKNTVYLQMNSLKPEDTAVYYCAAQEIVRYPRFDKYDYWGQGTQVTVSS : low polyreactivity

Now for a further sequence.
Lab note: QVQLEESGGGLVQAGGSLRLSCAASGFTFRVYAMGWYRQAPGKERELVAAISSGGSTNYADSVKGRFTISRDNAKNTVYLQMNSLKPEDTAVYYCAARQRYYSERPQYSGLYYWGQGTQVTVSS gave polyreactivity (PSR sort gate) of high polyreactivity

---

- test-name: yeast display, Sf9 membrane polyspecificity reagent, FACS + sequencing; frameworks hold sequencing errors
endpoint-label: polyreactivity (PSR sort gate)

QVQLVESGGGLVQAGGSLRLSCAASGFTFFPYAMGWYRQAPGKERELVAGITYIGGSTYYADSVKGRFTISRDNAKNTVYLQMNSLKPEDTAVYYCNAGRIGGFDWGQGTQVTVSS : low polyreactivity
QVQLVESGGGLVQAGGSLRLSCAASGITFEWYDMGWYRQAPGKEKDLVAAISQSGASTYYADSVKGRFTISRDNAKNTVYLQMNSLKPEETAVYYCATRARYVGGYKYNYWGQGTQVTVSS : high polyreactivity
QVQLVESGGGLVQAGGSLRLSCAASGFIFRPYTMGWYRQAPGKERELVAAITYSGGSSTYYADSVKGRFTISRDNAKNTVYLQMNSLKPEDTAVSYCATTPDYGHDYWGQGTQVTVSS : low polyreactivity
QVQLVESGGGLVQAGGSLRLICAASGSTYYDYAMGWYRQAPGKERELVAGISRSGGSTYYADSVKGRFTISRDNAKNSVYLQMNSLKPEDTAVYYCAARNYRYLYRIEYWGQGTQVTVSS : high polyreactivity
QVQLVESGGGLVQAGGSLRLSCAASGSTFDAYAMGWYRQAPGKERELVAAITNAGSTNYADSVKGRFTISRDNAKNTVYLQMNSLKPEDTAVFYCAADVSRWLDYGYDYWGQGTQVTVSS : low polyreactivity

Consider QVQLVESGGGLVQAGGSRRLSCAASGRTFPYNAMGWYRQATGKERELVATNDSSGTRTFYADSVKGRFTISRDNAKNTVYLQLNRLKPEDNAVYYCAAGIIYSNETNITSYDYWGQGTQVTVSS . Its measured polyreactivity (PSR sort gate) is low polyreactivity

Looking up QVQLVASGGGLVQAGGSLRISSAASGGIFPQYAMGWYRQAPGKERELVAAISRRGGSTYYADSVKGRFTISRDNAKNTVYLQMNSLKPEDTAVYFCNAGGSDYGVSNKYNSWGQGTQVTVSS , I see its polyreactivity (PSR sort gate) listed as high polyreactivity

Per the record, QVQLVESGGGLVQAGGSLRLSCAASGFTFRYYAMGWYRQAPGKERELVASITGGGRTYYADSVKGRFTISRDNAKNTVYLQMNSLKPEDTAVYYCATLLAYRLGSGYDSWGQGTQVTVSS has polyreactivity (PSR sort gate) of high polyreactivity

The recorded polyreactivity (PSR sort gate) for QVQLVESGGGLVQAGGSLRLSCAASGSTLAVYPMGWYRQAPGKERELVAVIDRGGSTYYADSVKGRFTISRDNAKNTVYLQMNSLKPEDTAVFNCNARRVKGYGYWGHGTQVTVSS is high polyreactivity

Lookup result for QVQLVESGGGLVQAGGSLRLSCADSGITFVRNAMGWYIHAPGKERECVAAISGSGVSTYADSVKGRFTISRDNAKNTVYLQMNILKPEDTAVYYCNTDEWYHFYHGAHKYDYWGQATQVTVSS ; measured polyreactivity (PSR sort gate): low polyreactivity

For reference, reported polyreactivity (PSR sort gate) for QVHLVESGGGLVKAGGSLRLSCAASGRTFPYNAMGWYRQAPGKERELVAAISSGGSTNYADSVKGRFTISRDNAKNTVYLQMNSLKPEDTAVYYCATKYQRRPYRYYYWGQGTQVTVSS stands at low polyreactivity

Note to self: polyreactivity (PSR sort gate) recorded for QVQMQESGGGLVQAGGSLRLICAASGTISVHASMGWYRQAPGKERELVAGITDGANTYYADSVKGRFTISRDNSKNTVYLQMNSLKPEDTAVYYCAAYYGTEVHFTYWGQGTQVTVSS was low polyreactivity
